protocol.text: protein stability index of a GFP-peptide fusion (GPS, HEK-293T) (PSI 1-6); higher = more stable;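 note: 24-mer peptide tiles fused after GFP, lentivirally expressed, FACS-sorted into six equal bins by GFP/DsRed ratio, decoded by Illumina sequencing, PSI is the read-weighted mean bin number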
condition: treatment: DMSO; c terminus: a fixed tail appended
Please assign a class to every record based on measured protein stability index, with ranges low: < 3; mid: ≥ 3 and < 4; high: ≥ 4

Previously resolved entries follow.
INPUT: Exam item: assign SFTLADVSLAVTLHRLKFLGFARR [GDAP1] to the correct category.
OUTPUT: low

INPUT: Exam item: assign CPPPPGPAAAPEGDWARLLEQMGA [ZBED3] to the correct category.
OUTPUT: mid

INPUT: Exam item: assign EGNHPSARKLTAQRRASTVSSVTQ [NET1] to the correct category.
OUTPUT: high

INPUT: Exam item: assign VEMDIYTALKKWMFLQLVPSWNGS [GMCL1] to the correct category.
OUTPUT: low

INPUT: Exam item: assign RVKLTKRSGHTQTDYINASFMDGY [PTPN9] to the correct category.
OUTPUT: low

INPUT: Exam item: assign LFRCIQNMPETLPNNSCYSAGIAK [TNFSF13B] to the correct category.
OUTPUT: low

***
INPUT: Exam item: assign IIVRTTNKKYYKKFSIPDLDRHQL [DPCD] to the correct category.
OUTPUT: low

INPUT: Exam item: assign DSQDLVASFRVTTGTSNTTAIKSI [RBBP5] to the correct category.
OUTPUT: mid

INPUT: Exam item: assign TNSTPLRAACFDGHLEVVRYLVGE [FEM1A] to the correct category.
OUTPUT: low

INPUT: Exam item: assign AEEPNAAVPDEIPPLEGDEDASRM [HSP90AB1] to the correct category.
OUTPUT: high

INPUT: Exam item: assign TLQHWPHIIRIGDLKPTGEIPKQV [DENND6A] to the correct category.
OUTPUT: low

INPUT: Exam item: assign VYSLQDFDTLATVGTGTFGRVHLV [PRKX] to the correct category.
OUTPUT: low

INPUT: Exam item: assign SGDRDENSFSLNSSISSSARRTTR [MAP2] to the correct category.
OUTPUT: high

INPUT: Exam item: assign GTGLVLDEQLNEFHCLWDDSFPEG [HDAC6] to the correct category.
OUTPUT: high

INPUT: Exam item: assign GYNPDYDESGGPDNEDYPLFRELW [KLHDC10] to the correct category.
OUTPUT: mid

INPUT: Exam item: assign ETRAEDPPWFEGLESRFQSKSGYL [DFFB] to the correct category.
OUTPUT: mid

INPUT: Exam item: assign SIPKLKLTRPVPAGADLPPPKIRL [PWWP2B] to the correct category.
OUTPUT: mid

INPUT: Exam item: assign LIGAAAFLGGVVRMTISLTVILIE [CLCN6] to the correct category.
OUTPUT: mid

INPUT: Exam item: assign EKLKVAPPNADLEQGFQEGVPNAS [MFF] to the correct category.
OUTPUT: high

INPUT: Exam item: assign GQCVQAFETHESDINSVRYYPSGD [GNB5] to the correct category.
OUTPUT: high

INPUT: Exam item: assign WGEGLHQLREALKILAERVLILET [EMID1] to the correct category.
OUTPUT: low

INPUT: Exam item: assign AACLYLVCRTEGTPHMLLDLSDLL [BRF1] to the correct category.
OUTPUT: mid

INPUT: Exam item: assign RGENVVLLGEIDLEKESDTPLQQV [LSM1] to the correct category.
OUTPUT: high

INPUT: Exam item: assign MWAHSMTVQDYQDLIDRGWRRSGK [ATE1] to the correct category.
OUTPUT: mid

INPUT: Exam item: assign GISVPSGLFVPSLLCGAAFGRLVA [CLCN6] to the correct category.
OUTPUT: low

* * *

protocol.text: protein stability index of a GFP-peptide fusion (GPS, HEK-293T) (PSI 1-6); higher = more stable
condition: treatment: MLN4924 1 uM, 8 h; c terminus: a fixed tail appended
Answer each item with its documented protein stability index.
Give bare numbers.

Example cases with answers are listed next.
INPUT: Could you share which protein stability index value was measured for CQVFPERLAQGNPQQGFFSSFFTC [ATP23] ?
OUTPUT: 2.14

INPUT: Could you share which protein stability index value was measured for QLLYSPIENIQRVAAGVLCELAQD [CTNNB1] ?
OUTPUT: 2.27

INPUT: Could you share which protein stability index value was measured for MEKSSFTEYIESPDVENEVKRLLR [TAF7L] ?
OUTPUT: 3.83

INPUT: Could you share which protein stability index value was measured for LQAQVQYQQQHEQQKKDLEILHQQ [SASS6] ?
OUTPUT: 4.93

INPUT: Could you share which protein stability index value was measured for NPLIASSFSLVKLVLRRQLKNKCC [C22orf31] ?
OUTPUT: 2.18

Quick batch: protein stability index for everything below.
1. CRGNQHDVPVIPLDVVDNQTEKLD [CASP6]
2. MLPGVGVFGTSLTARVIIPLLKDE [GFOD1]
3. CRNGSSIQIAFEEVPQLPPRASIS [C2CD2L]
4. TFPHSISAKNTSHPGSGTKVQFNL [SASS6]
5. LDPVLQAPGTGPAQTELLCCLVKM [FANCE]
6. QKVASNHSPFSSESRALSTSSNLG [TBX5]
7. VYSLQDFDTLATVGTGTFGRVHLV [PRKX]
8. SPQPLASSPGPWGLEALAGGDLMP [FCHO1]

OUTPUT:
1. 5.03
2. 2.02
3. 2.98
4. 3
5. 2.32
6. 4.29
7. 2.42
8. 4

* * *

protocol.text: protein stability index of a GFP-peptide fusion (GPS, HEK-293T) (PSI 1-6); higher = more stable
condition: treatment: MLN4924 1 uM, 8 h; c terminus: a fixed tail appended
Everything with protein stability index lower than 3 is rule not met; everything else, including exactly 3, is rule met.

INPUT: Tell me whether protein stability index is at least 3 here: LLEKDYFGLTYRDAENQKNWLDPA [EPB41L3]
OUTPUT: rule met

INPUT: Tell me whether protein stability index is at least 3 here: VGEVLKDIETACKLLNITADPMDW [SPDEF]
OUTPUT: rule not met

***
INPUT: Tell me whether protein stability index is at least 3 here: TAHLYSLLQTQHALGDAFADLSQK [ARFIP2]
OUTPUT: rule not met

* * *

protocol.text: protein stability index of a GFP-peptide fusion (GPS, HEK-293T) (PSI 1-6); higher = more stable
condition: treatment: MLN4924 1 uM, 8 h; c terminus: a fixed tail appended
Everything with protein stability index lower than 4 is Not fulfilled; everything else, including exactly 4, is Fulfilled.

INPUT: Tell me whether protein stability index is at least 4 here: EKEQEKMRQDLEEERVALNTEIEK [PKD2L1]
OUTPUT: Fulfilled

***
INPUT: Tell me whether protein stability index is at least 4 here: CTGLKKAHRTEFYRNLTHNPPSDF [STK38L]
OUTPUT: Not fulfilled

INPUT: Tell me whether protein stability index is at least 4 here: SGSSYRDALQRYGTSHGAPPARGP [RBMY1A1]
OUTPUT: Fulfilled

INPUT: Tell me whether protein stability index is at least 4 here: SAVVGDVLVLTKPLGTQVAVNAHQ [SEPHS2]
OUTPUT: Not fulfilled

INPUT: Tell me whether protein stability index is at least 4 here: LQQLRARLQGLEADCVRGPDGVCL [PBXIP1]
OUTPUT: Not fulfilled

INPUT: Tell me whether protein stability index is at least 4 here: LRIPEGPIDQGPAIGRVRVLEEQL [FUT8]
OUTPUT: Not fulfilled

INPUT: Tell me whether protein stability index is at least 4 here: ERRRGPAAGEQLQQQHVSCQVFPE [ATP23]
OUTPUT: Fulfilled

INPUT: Tell me whether protein stability index is at least 4 here: LQSAPDVKGRVRCLTAGPEVAAQL [ZSWIM9]
OUTPUT: Not fulfilled

INPUT: Tell me whether protein stability index is at least 4 here: TLVNFHLKRSIPQVSPVRRAPSRR [CPN1]
OUTPUT: Not fulfilled

INPUT: Tell me whether protein stability index is at least 4 here: RGENVVLLGEIDLEKESDTPLQQV [LSM1]
OUTPUT: Fulfilled

* * *

protocol.text: protein stability index of a GFP-peptide fusion (GPS, HEK-293T) (PSI 1-6); higher = more stable
condition: treatment: DMSO; c terminus: a fixed tail appended
property.measured: protein stability index
Numbers only.

Example cases with answers are listed next.
INPUT: Could you share which protein stability index value was measured for SDVVPEKERPLVIGHFNTASGVGF [MFSD9] ?
OUTPUT: 3.49

INPUT: Could you share which protein stability index value was measured for PPSGSQPLTSTQGLEHAAAGGSSG [FBF1] ?
OUTPUT: 5.3

Quick batch: protein stability index for everything below.
1. NPIIYSFRNPDVQSAIWRMLTGRR [OR3A1]
2. YGSDQQHHLGSGSGAGGTGGPAGQ [MYOZ1]
3. GDLSPGHGASAPSVSREARQTVPP [PWWP2B]
4. RHCDDDGRTENGALAPKQELPSAL [ZNF24]
5. GGRPGGRGAPAVQQNIPSTLLQDH [WAS]

OUTPUT:
1. 2.51
2. 4.93
3. 5.03
4. 5.25
5. 4.81
